Recorded Percent Effect, one value per entry.
- assay-system: Sialic acid-binding Ig-like lectin 9 (Homo sapiens) (UniProt Q9Y336)
- Sequence (Q9Y336 whole entry): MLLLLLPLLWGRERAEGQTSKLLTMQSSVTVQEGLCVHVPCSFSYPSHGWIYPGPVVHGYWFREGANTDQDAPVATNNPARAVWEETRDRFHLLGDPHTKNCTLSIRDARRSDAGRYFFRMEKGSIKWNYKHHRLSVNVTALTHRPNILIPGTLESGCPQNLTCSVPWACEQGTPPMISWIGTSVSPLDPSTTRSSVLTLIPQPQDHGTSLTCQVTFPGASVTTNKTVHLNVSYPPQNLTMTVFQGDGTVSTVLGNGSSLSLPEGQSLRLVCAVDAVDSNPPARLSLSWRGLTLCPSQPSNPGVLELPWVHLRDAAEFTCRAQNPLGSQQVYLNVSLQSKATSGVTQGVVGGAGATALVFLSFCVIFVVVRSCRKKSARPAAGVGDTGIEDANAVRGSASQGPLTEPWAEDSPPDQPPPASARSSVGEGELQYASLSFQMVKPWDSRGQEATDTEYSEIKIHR
- assay-comment: Hs-Siglec9 ALPHAscreen SOP 20170721
- Parameters: scale not given: direction of the effect not stated beside the values
- measurement-conditions: 10 µM

molecule: CCOCC1CN(C(=O)c2ccncc2)Cc2nn(C)cc21 (stereo unspecified)
Percent Effect (%): 2.25
--
molecule: Cc1cc(C(C)NC(=O)N2CCC(n3cncn3)CC2)c(C)s1 (stereo unspecified)
Percent Effect (%): 9.65
--
molecule: O=C(c1ccc[nH]1)N1CCn2cc(CN3CCCC3)nc2C1
Percent Effect (%): -0.683
--
molecule: CNC(=O)C1Cn2ccnc2C2(CCN(Cc3cccc(C)n3)CC2)O1 (stereo unspecified)
Percent Effect (%): -4.02
--
molecule: CN(Cc1ncc(-c2ccccc2)o1)CC1CCCN1c1cccnn1 (stereo unspecified)
Percent Effect (%): 2.54
--
molecule: Cc1nc2c(c(C)c1CC(=O)Nc1ccc(Cl)cc1)c(=O)[nH]n2C
Percent Effect (%): 20.4
--
molecule: Cc1nn(C)c(Cl)c1C1CCCN1CCc1ccccn1 (stereo unspecified)
Percent Effect (%): 1.51
--
molecule: O=S(=O)(NC1=NCN(CCc2cccs2)CN1)c1ccc(F)cc1
Percent Effect (%): 4.09
--
molecule: O=S(=O)(c1cccnc1)N1CCN(CCn2ccnc2)CC1
Percent Effect (%): 0.536
--
molecule: CCOC(=O)c1c(NC(=O)CN2CCN(C(C)=O)CC2)sc2c1CCC2
Percent Effect (%): 4.99
--
molecule: CCC1=N[C@@]2(CC[C@@H]3CN(CC4CC4)C[C@@H]32)C(=O)N1C
Percent Effect (%): 0.724
